All values here come from PubChem BioAssay (Tox21).

ASSAY_PROTOCOL: qHTS RealTime-Glo MT Cell Viability Assay in HEK293 cells - 24 hour (AID 1224886); also: nearly all actives have a fitted effect of over 50% in size
TEST_SETTINGS: RealTime-Glo luminescence; series mostly up to 76.8 µM
Records with an inconclusive call do not appear. Activity calls are given as the source filed them. Calls follow the shape of the dose curve; as a rule, active = well fitted cell-killing curve with a large enough effect in the repeat runs; inconclusive = weak or mixed curves, or effect the other way; inactive = flat fitted curve, though single readings scatter.
Possible outcomes: true for active, false for inactive

- COMPOUND: "COC[C@H](C)N(C(=O)CCl)c1c(C)csc1C"
  CLASS_ASSIGNMENT: "false"
- COMPOUND: "c1ccc(OCC2CO2)cc1 (stereo not drawn)"
  CLASS_ASSIGNMENT: "false"
- COMPOUND: "CCCCCCCCCCCCCN1CC(C)OC(C)C1 (stereo not drawn)"
  CLASS_ASSIGNMENT: "false"
- COMPOUND: "CCc1ccccc1C"
  CLASS_ASSIGNMENT: "false"
- COMPOUND: "BrCBr"
  CLASS_ASSIGNMENT: "false"
- COMPOUND: "CCOC(=O)OC1=C(c2cc(C)ccc2C)C(=O)NC12CCC(OC)CC2 (stereo not drawn)"
  CLASS_ASSIGNMENT: "false"
- COMPOUND: "CC(C)(COCC1CO1)COCC1CO1 (stereo not drawn)"
  CLASS_ASSIGNMENT: "false"
- COMPOUND: "CC(C)(C)C(O)C(Oc1ccc(-c2ccccc2)cc1)n1cncn1 (stereo not drawn)"
  CLASS_ASSIGNMENT: "true"
- COMPOUND: "Oc1ccc(C(c2ccc(O)cc2)(C(F)(F)F)C(F)(F)F)cc1"
  CLASS_ASSIGNMENT: "true"
- COMPOUND: "Cc1cc(C(C)(C)c2cc(C)c(O)c(C)c2)cc(C)c1O"
  CLASS_ASSIGNMENT: "true"
- COMPOUND: "Nc1ccc(Cc2ccc(N)c(Cl)c2)cc1Cl"
  CLASS_ASSIGNMENT: "true"
- COMPOUND: "Oc1ccc(I)cc1"
  CLASS_ASSIGNMENT: "false"
- COMPOUND: "N#Cc1ccc(O)cc1"
  CLASS_ASSIGNMENT: "false"
- COMPOUND: "C=CCOC(N)=O"
  CLASS_ASSIGNMENT: "false"
- COMPOUND: "CC(C)OS(C)(=O)=O"
  CLASS_ASSIGNMENT: "false"
- COMPOUND: "O=c1ssc(Cl)c1Cl"
  CLASS_ASSIGNMENT: "true"
- COMPOUND: "CC(C)(C)OO"
  CLASS_ASSIGNMENT: "false"
- COMPOUND: "ClC1=C(Cl)[C@]2(Cl)[C@@H]3[C@@H](Cl)[C@@H](Cl)C[C@@H]3[C@@]1(Cl)C2(Cl)Cl"
  CLASS_ASSIGNMENT: "false"
- COMPOUND: "CC(C)C1CCC(Cc2ccc(Cl)cc2)C1(O)Cn1cncn1 (stereo not drawn)"
  CLASS_ASSIGNMENT: "true"
- COMPOUND: "C[C@]12CC[C@@H]3c4ccc(OC(=O)N(CCCl)CCCl)cc4CC[C@H]3[C@@H]1CC[C@@H]2O"
  CLASS_ASSIGNMENT: "false"
- COMPOUND: "CC(C)CCCCCOC(=O)c1ccccc1C(=O)OCCCCCC(C)C"
  CLASS_ASSIGNMENT: "false"
- COMPOUND: "[Cl][Sn]([c]1ccccc1)([c]1ccccc1)[c]1ccccc1"
  CLASS_ASSIGNMENT: "true"
- COMPOUND: "O=[N+]([O-])c1cc(C(F)(F)F)c(Cl)c([N+](=O)[O-])c1Cl"
  CLASS_ASSIGNMENT: "true"
- COMPOUND: "N#CCCSCCC#N"
  CLASS_ASSIGNMENT: "false"
- COMPOUND: "CC1CCC(C(C)C)C(OC(=O)c2ccccc2N)C1 (stereo not drawn)"
  CLASS_ASSIGNMENT: "true"
- COMPOUND: "O=C(CCl)C(Cl)Cl"
  CLASS_ASSIGNMENT: "true"
- COMPOUND: "CCCCCCCCCCCCCCCC[n+]1ccccc1"
  CLASS_ASSIGNMENT: "true"
- COMPOUND: "COc1cc(N)c(Cl)cc1C(=O)NC1CN2CCC1CC2 (stereo not drawn)"
  CLASS_ASSIGNMENT: "false"
